Source: patent US12410457B2

Tested on: aCD137 cells
Test: Screen of antioxidants added to feed media in aCD137 fed-batch cell culture
Format: cell-based, Chinese Hamster
Details: 0.25 mM in feed media M154A1B; final titer harvested day 14; normalized to control without antioxidant
Description: Following the cell culture process described in Example 1, thirteen novel antioxidants (Table 1) were added to the feed media utilized in aCD137 cell culture. Three antioxidant concentrations were evaluated: 1 mM (Run #1-13), 0.25 mM (Run #17-29), and 0.0625 mM (Run #33-45). […] Viable cell density (VCD) and cell viability were measured off-line using a CEDEX® automated cell counter (Innovatis AG). […]
Value type: Titer % (%)
Give the value in % but do not write % after it.

What does the record list as Titer % for O=C(/C=C/c1ccc(O)c(O)c1)O[C@@H]1C[C@](O)(C(=O)O)C[C@@H](O)[C@H]1O [Chlorogenic acid, chlorogenic acid] ? 109.92

What does the record list as Titer % for O=C(/C=C/c1ccc(O)c(O)c1)O[C@H](Cc1ccc(O)c(O)c1)C(=O)O [Rosmarinic acid, rosmarinic acid] ? 146.83

What does the record list as Titer % for Oc1ccc(C=Cc2cc(O)cc(O)c2)cc1 [Resveratrol, resveratrol] ? 111.90

What does the record list as Titer % for O=c1c(O)c(-c2ccc(O)c(O)c2)oc2cc(O)cc(O)c12 [Quercetin, quercetin] ? 111.90

====

Test system: aCD137 cells
Assay: Screen of antioxidants added to feed media in aCD137 fed-batch cell culture
Type: cell-based, Chinese Hamster
Conditions: 1 mM in feed media M154A1B; final titer harvested day 14; normalized to control without antioxidant
Description: Following the cell culture process described in Example 1, thirteen novel antioxidants (Table 1) were added to the feed media utilized in aCD137 cell culture. Three antioxidant concentrations were evaluated: 1 mM (Run #1-13), 0.25 mM (Run #17-29), and 0.0625 mM (Run #33-45). […] Viable cell density (VCD) and cell viability were measured off-line using a CEDEX® automated cell counter (Innovatis AG). […]
Value type: Titer % (%)
Give the value in % but do not write % after it.

What does the record list as Titer % for `O=C(/C=C/c1ccc(O)c(O)c1)O[C@@H]1C[C@](O)(C(=O)O)C[C@@H](O)[C@H]1O` ? 151.59

What does the record list as Titer % for `O=c1c(O)c(-c2ccc(O)c(O)c2)oc2cc(O)cc(O)c12` ? 128.97

What does the record list as Titer % for COc1cc(C2Oc3cc([C@H]4Oc5cc(O)cc(O)c5C(=O)[C@@H]4O)ccc3OC2CO)ccc1O (stereo partly drawn) ? 144.44

What does the record list as Titer % for `Oc1ccc(-c2[o+]c3cc(O)cc(O)c3cc2O)cc1` ? 118.25

What does the record list as Titer % for `O=C(/C=C/c1ccc(O)c(O)c1)O[C@H](Cc1ccc(O)c(O)c1)C(=O)O` ? 180.16

What does the record list as Titer % for `Oc1ccc(C=Cc2cc(O)cc(O)c2)cc1` ? 144.05
